Tested on: IGROV1 ovarian
protocol: NCI tumour cell line growth inhibition, 48 h; in the data active means GI50 below about 0.43 µM; inactive means the rest
Outcomes: active, inactive

1. O=[N+]([O-])c1cc[n+]([O-])c2ccccc12 :: active
2. COc1cc(CNc2nc3c(N)cc(C(F)(F)F)cc3nc2-c2ccccc2)cc(OC)c1OC :: inactive
3. Fc1ccc(-c2ncn(C3CCNCC3)c2-c2ccnc(Oc3ccc4c(c3)OCO4)n2)cc1 :: inactive

###

System: 786-0 renal
protocol: NCI tumour cell line growth inhibition, 48 h
test readout: TGI

1) CCCn1c2c(c3c(O)cccc31)C(=O)c1ccccc1-2 :: 52.2 µM
2) O=C1CCCNn2c(nc3ncccc3c2=O)N1 :: > 100 µM
3) COC(=O)c1c2c(c(C)[n+]([O-])c1C)C(=O)C=C(NCc1ccccc1)C2=O :: 6.88 µM
4) [2H]C([2H])([2H])NC(=O)c1nnc(NC(=O)C2CC2)cc1Nc1cccc(-c2ncn(C)n2)c1OC :: > 100 µM
5) CCCCNNC(=O)c1ccc(Br)cc1 :: > 50 µM
6) CCCCc1ccc(Nc2ncc3ncn(COCCO)c3n2)cc1 :: > 100 µM
7) CC1=CC2C(C(O)CC3(C)C2CC(C)C32OCOC23COCO3)C2(C)C/C(=C/O)C(=O)C=C12 (centres undefined) :: 3.55 µM
8) CSC(=S)Nc1cc(C)cc(C)n1 :: > 31.6 µM
9) CCc1cccc2c3c([nH]c12)-c1ccccc1NC(=O)C3 :: > 100 µM
10) Nc1ccc(-c2nc3ccccc3s2)cc1Cl :: > 100 µM
11) CNC(=O)NCC1OC(n2cnc3c(NC(=O)Nc4ccccc4)ncnc32)C(O[Si](C)(C)C(C)(C)C)C1O[Si](C)(C)C(C)(C)C (centres undefined) :: 3.71 µM
12) Cc1ccc(S(=O)(=O)N/N=C(\c2nc3ccc(Cl)cc3[nH]c2=O)C(O)c2ccco2)cc1 (centres undefined) :: > 100 µM
13) O=P1(N2CCOCC2)OCCO1 :: > 100 µM
14) Cc1cc(S(=O)(=O)Nc2nc3ncccc3[nH]2)c(S)cc1Cl :: > 100 µM

###

Test system: SNB-19 CNS
protocol: NCI tumour cell line growth inhibition, 48 h
test readout: TGI

1. O=S(=O)(O)O :: 2580 µM
2. CC1C(NNC(N)=O)Oc2cc3c(cc2C1c1ccccc1O)OCO3 (stereo unspecified) :: > 100 µM
3. Cc1c(C(=O)C/C(=N/NC(=O)c2ccccc2)C(=O)Nc2ccc(Cl)cc2)[n+](=O)c2ccccc2n1[O-] :: > 100 µM
4. Cc1cc(-n2nnc(C(=O)O)c2-c2ccccc2)c2ccc(Cl)cc2n1 :: > 100 µM
5. CN(C)c1ccc(Nc2c3ccccc3nc3ccccc23)cc1 :: 9.32 µM
6. COc1cc2c(cc1OC)-c1ncc3c(OC)ccc(OC)c3c1C2 :: > 100 µM
7. O=[N+]([O-])c1ccc(NN=C2CN3CCN(C2)c2ccccc23)c([N+](=O)[O-])c1 :: > 100 µM
8. NCCCN(CCCCN(CCCN)C(=O)OCc1ccccc1)C(=O)OCc1ccccc1 :: > 100 µM
9. O=C1CCCNn2c(nc3ncccc3c2=O)N1 :: > 100 µM
10. CCc1cccc2c3c([nH]c12)-c1ccccc1NC(=O)C3 :: > 100 µM
11. O=[N+]([O-])/C=C/c1c(Cl)cccc1Cl :: 12.1 µM

###

Tested on: NCI-H226 lung
protocol: NCI tumour cell line growth inhibition, 48 h
TGI by entry:
test readout: TGI

1. O=C(O)CSc1ccccc1C(=O)O :: > 100 µM
2. CCc1cccc2c3c([nH]c12)-c1ccccc1NC(=O)C3 :: > 100 µM
3. N#C/C(=C1\SCC(=O)N1c1ccccc1)c1nc2ccccc2[nH]1 :: > 100 µM
4. COC(=O)c1ccccc1C1CN=NC12Cc1c(ccc3c1CCC3)C2=O (stereo unspecified) :: > 100 µM
5. N#Cc1c(-c2ccc(Cl)cc2)cc(-c2ccc(Nc3ccnc4cc(Cl)ccc34)cc2)[nH]c1=O :: > 100 µM
6. C/C(CC(=O)NCCc1ccccc1)=N\NS(=O)(=O)c1ccc(C)cc1 :: > 100 µM
